Each recorded value in this set is attributed to the supplement of paper PMC7125110.

B1: glmS ribozyme (parent)
chain: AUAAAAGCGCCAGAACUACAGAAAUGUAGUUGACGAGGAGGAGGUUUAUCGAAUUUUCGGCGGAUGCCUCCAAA

variants of: B1; assay: kcat; higher = faster cleavage; RNA array; conditions: with glucosamine-6-phosphate
Variants at the floor of the assay were thinned out.
The following variants are shown together with reported kcat values.
measurement.kind: kcat (s⁻¹)

In [3]: df
Out[3]:
       mutant_name  result_comparator  endpoint_value
 0        A6G C70A                  <           1e-05
 1       U31G A48C                  =        0.000112
 2       A12U U49G                  =         0.00213
 3       A12C A15G                  =           0.016
 4       G40A U47A                  =         0.00464
 5            G32A                  =         0.00528
 6  G29U A53G C67G                  =        0.000147
 7       A12C A42G                  =          0.0188
 8       U55C C70G                  <           1e-05
 9       A14U U57A                  =        6.85e-05
10       U31C C58G                  =        7.48e-05
11       U45G U69G                  =        0.000184
12       U30A U55A                  =          0.0085
13       C11A A15U                  =        6.57e-05
14       G41C G66C                  =        1.55e-05
15  C11U U56A C70U                  =         0.00048
16       U31G G37C                  =        2.89e-05
17       C58U U65C                  <           1e-05
18       A14G U45C                  =         0.00289
19       U65A C68G                  =        4.89e-05
20        G9U C50G                  =        2.48e-05
21       A33C C58U                  <           1e-05
